Reference source for all entries: ChEMBL document CHEMBL5331096

Target: UniProtKB P06276
Experiment: Time dependent inhibition of human BChE using butyrylthiocholine iodide as substrate preincubated for 5 mins followed by substrate addition and measured for 2 mins by spectrophotometry based Ellman's method
Conditions: time 7.0 min
Calls of active or inactive are those of the source. No cut-off for these calls is given here.
test.readout: inhibition

{"smiles.input": "CN(CCC1CCCCCC1)Cc1c[nH]c2c(OC(=O)N(C)Cc3ccccc3)cccc12", "test.readout": "inhibition", "assay.value": "Active"}
{"smiles.input": "CN(CCC1CCCCCC1)Cc1c[nH]c2cc(OC(=O)N(C)C)ccc12", "test.readout": "inhibition", "assay.value": "Active"}
{"smiles.input": "C#CCN(C(=O)Oc1cccc2c(CN(C)CCC3CCCCCC3)c[nH]c12)C(C)C", "test.readout": "inhibition", "assay.value": "inactive"}
{"smiles.input": "C#CCCCCCCCCCN(C)C(=O)Oc1cccc2c(CN(C)CCC3CCCCCC3)c[nH]c12", "test.readout": "inhibition", "assay.value": "Active"}

Turning now to a further compound:
INPUT: Look up inhibition: C#CCN(C)C(=O)Oc1ccc2c(CN(C)CCC3CCCCCC3)c[nH]c2c1
OUTPUT: inactive

###

Target: Acetylcholinesterase (Homo sapiens)
Sequence (P22303 whole entry): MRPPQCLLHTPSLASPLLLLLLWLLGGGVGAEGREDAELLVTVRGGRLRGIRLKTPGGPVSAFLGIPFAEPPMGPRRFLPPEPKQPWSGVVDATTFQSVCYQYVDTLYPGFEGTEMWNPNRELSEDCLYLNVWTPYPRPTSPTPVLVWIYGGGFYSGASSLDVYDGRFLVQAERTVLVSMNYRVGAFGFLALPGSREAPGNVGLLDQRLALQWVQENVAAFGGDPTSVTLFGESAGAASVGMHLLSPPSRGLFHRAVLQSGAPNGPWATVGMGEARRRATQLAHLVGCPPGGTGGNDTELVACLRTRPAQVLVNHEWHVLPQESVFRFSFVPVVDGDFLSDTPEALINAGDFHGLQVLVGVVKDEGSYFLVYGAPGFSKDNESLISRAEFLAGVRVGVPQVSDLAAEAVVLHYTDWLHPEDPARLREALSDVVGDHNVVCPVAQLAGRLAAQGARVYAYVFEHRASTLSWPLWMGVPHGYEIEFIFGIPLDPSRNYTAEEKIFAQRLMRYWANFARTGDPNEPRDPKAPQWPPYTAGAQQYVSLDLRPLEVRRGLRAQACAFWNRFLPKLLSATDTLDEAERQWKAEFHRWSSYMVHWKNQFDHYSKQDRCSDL
Assay: Inhibition of human AChE assessed as residual activity using acetylthiocholine iodide as substrate at 100 uM preincubated for 30 mins followed by substrate addition and measured for 2 mins by spectrophotometry based Ellman's method relative to control
Details: time 32.0 min
test.readout: Activity
Answer with the figure and its unit, nothing else.

{"smiles.input": "CC(C)N(C(=O)Oc1cccc2cc[nH]c12)C(C)C", "test.readout": "Activity", "assay.value": "66.5%"}
{"smiles.input": "CCN(C)C(=O)Oc1cccc2cc[nH]c12", "test.readout": "Activity", "assay.value": "56.2%"}

INPUT: Fill blank: measured Activity of the compound CN(C)C(=O)Oc1cccc2cc[nH]c12 is ____.
OUTPUT: 2.4%

INPUT: Which Activity value is on record for O=C(Oc1cccc2cc[nH]c12)N1CCOCC1 ?
OUTPUT: 19.3%

###

Molecular target: UniProt:P22303
Assay: Time dependent inhibition of human AChE using acetylthiocholine iodide as substrate preincubated for 5 mins followed by substrate addition and measured for 2 mins by spectrophotometry based Ellman's method
Details: time 7.0 min
Activity calls are given as the source filed them. No cut-off for these calls is given here.
Use one of these outcomes when replying: yes (1) = active, no (0) = inactive

Completed entries (count: 3):
{"smiles.input": "C#CCN(C(=O)Oc1cccc2c(CN(C)CCC3CCCCCC3)c[nH]c12)C(C)C", "discrete.label": "no (0)"}
{"smiles.input": "CN(CCC1CCCCCC1)Cc1c[nH]c2c(OC(=O)N(C)C(C)(C)C)cccc12", "discrete.label": "no (0)"}
{"smiles.input": "C#CCN(CC)C(=O)Oc1cccc2c(CN(C)CCC3CCCCCC3)c[nH]c12", "discrete.label": "yes (1)"}

INPUT: Please share the test call associated with CCN(C)C(=O)Oc1cccc2c(CN(C)CCC3CCCCCC3)c[nH]c12 .
OUTPUT: yes (1)

INPUT: Please indicate how the test categorized CN(CCC1CCCCCC1)Cc1c[nH]c2c(OC(=O)N3CCCCC3)cccc12 .
OUTPUT: yes (1)

###

Target: Cholinesterase (Homo sapiens)
Sequence (P06276 whole entry): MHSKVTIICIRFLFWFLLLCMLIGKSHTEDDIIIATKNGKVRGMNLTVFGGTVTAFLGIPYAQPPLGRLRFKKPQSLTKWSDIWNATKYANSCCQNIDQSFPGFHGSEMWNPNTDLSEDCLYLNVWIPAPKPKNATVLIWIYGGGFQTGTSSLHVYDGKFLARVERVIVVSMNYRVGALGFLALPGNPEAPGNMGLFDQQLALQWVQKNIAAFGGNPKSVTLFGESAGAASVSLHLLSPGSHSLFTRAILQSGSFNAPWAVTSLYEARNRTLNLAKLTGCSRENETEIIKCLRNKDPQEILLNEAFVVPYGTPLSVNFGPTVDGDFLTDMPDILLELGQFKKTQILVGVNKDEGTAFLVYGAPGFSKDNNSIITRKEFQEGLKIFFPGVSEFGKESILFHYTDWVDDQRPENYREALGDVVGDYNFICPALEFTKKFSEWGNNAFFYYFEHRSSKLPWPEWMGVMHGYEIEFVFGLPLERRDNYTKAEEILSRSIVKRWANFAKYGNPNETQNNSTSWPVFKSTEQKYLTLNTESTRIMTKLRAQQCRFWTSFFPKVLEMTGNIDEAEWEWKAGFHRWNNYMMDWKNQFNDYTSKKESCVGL
Assay: Inhibition of human BChE using butyrylthiocholine iodide as substrate preincubated for 5 mins followed by substrate addition and measured for 2 mins by spectrophotometry based Ellman's method
Overview of recorded pIC50 for various compounds
Scale note: pIC50 = -log10(concentration in M).

Examples from the recorded data:
{"smiles.input": "CN(CCC1CCCCCC1)Cc1c[nH]c2cc(OC(=O)N(C)C)ccc12", "pIC50": 7.34}
{"smiles.input": "C#CCN(C)C(=O)Oc1ccc2c(CN(C)CCC3CCCCCC3)c[nH]c2c1", "pIC50": 7.99}
{"smiles.input": "C#CCN(C(=O)Oc1cccc2c(CN(C)CCC3CCCCCC3)c[nH]c12)C(C)C", "pIC50": 7.09}
{"smiles.input": "CC(C)N(C(=O)Oc1ccc2c(CN(C)CCC3CCCCCC3)c[nH]c2c1)C(C)C", "pIC50": 7.06}
{"smiles.input": "CN(CCC1CCCCCC1)Cc1c[nH]c2c(O)cccc12", "pIC50": 6.43}
{"smiles.input": "CN(CCC1CCCCCC1)Cc1c[nH]c2c(OC(=O)N(C)C(C)(C)C)cccc12", "pIC50": 6.83}

INPUT: Given the entry CON(C)C(=O)Oc1cccc2c(CN(C)CCC3CCCCCC3)c[nH]c12 , what pIC50 was observed with Cholinesterase (Homo sapiens)?
OUTPUT: 6.80

INPUT: Provide value of pIC50 for this record tested with Cholinesterase (Homo sapiens): C#CCCCCCCCCCN(C)C(=O)Oc1cccc2c(CN(C)CCC3CCCCCC3)c[nH]c12
OUTPUT: 8.42

INPUT: Quick check: pIC50 on Cholinesterase (Homo sapiens), item CCN(CC)C(=O)Oc1cccc2c(CN(C)CCC3CCCCCC3)c[nH]c12 ?
OUTPUT: 7.22

INPUT: Return pIC50 measured with Cholinesterase (Homo sapiens) given this compound: C#CCN(CC#C)C(=O)Oc1cccc2c(CN(C)CCC3CCCCCC3)c[nH]c12
OUTPUT: 7.48

INPUT: API: value(readout=pIC50, system=Cholinesterase (Homo sapiens)) for record CC(C)N(C(=O)Oc1cccc2c(CN(C)CCC3CCCCCC3)c[nH]c12)C(C)C
OUTPUT: 6.64

INPUT: Give the reported pIC50 for CN(CCC1CCCCCC1)Cc1c[nH]c2c(OC(=O)N(C)N(C)C)cccc12 (system: Cholinesterase (Homo sapiens)).
OUTPUT: 7.88
